Listed molecules paired with reported log10 IC50
# Test system: 996289-038-R-J1-PDC complex spheroid viability;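 also: spheroids exposed to the agents for 7 days before readout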
# assay text: Anticancer human tumor 996289-038-R-J1-PDC patient-derived colon adenocarcinoma cell line growth inhibition [CLK]
# assay conditions: curve of first compound; second compound 10 µM
quantity: log10 IC50 (log10 of the value in µM)

• COc1ccc([C@@H](O)c2cc(-c3ncnc4cc(N5CCOCC5)ccc34)c(F)cc2Cl)nn1 + CNC(=O)c1ccc(Nc2nc(OC3CCCC3)c3c(-c4ccc5nc(C)oc5c4)c[nH]c3n2)c(OC)c1 = 0.05
• CCCS(=O)(=O)Nc1ccc(F)c(C(=O)c2c[nH]c3ncc(-c4ccc(Cl)cc4)cc23)c1F + CNC(=O)c1ccc(Nc2nc(OC3CCCC3)c3c(-c4ccc5nc(C)oc5c4)c[nH]c3n2)c(OC)c1 = 0.65
• C=C(F)C(=O)N1CCN(c2nc(OCC3CCCN3C)nc3c2CCN(c2cccc4cccc(Cl)c24)C3)CC1CC#N (stereo not given) + CNC(=O)c1ccc(Nc2nc(OC3CCCC3)c3c(-c4ccc5nc(C)oc5c4)c[nH]c3n2)c(OC)c1 = 0.15
• Nc1ccn(C2OC(CO)C(O)C2(F)F)c(=O)n1 (stereo not given) + CNC(=O)c1ccc(Nc2nc(OC3CCCC3)c3c(-c4ccc5nc(C)oc5c4)c[nH]c3n2)c(OC)c1 = -0.19
• C=CC(=O)Nc1cc(Nc2nccc(-c3cn(C)c4ccccc34)n2)c(OC)cc1N(C)CCN(C)C + CNC(=O)c1ccc(Nc2nc(OC3CCCC3)c3c(-c4ccc5nc(C)oc5c4)c[nH]c3n2)c(OC)c1 = -1.24
• CC1(C)CCC(CN2CCN(c3ccc(C(=O)NS(=O)(=O)c4ccc(NCC5CCOCC5)c([N+](=O)[O-])c4)c(Oc4cnc5[nH]ccc5c4)c3)CC2)=C(c2ccc(Cl)cc2)C1 + CNC(=O)c1ccc(Nc2nc(OC3CCCC3)c3c(-c4ccc5nc(C)oc5c4)c[nH]c3n2)c(OC)c1 = 0.71

Cited source for all entries: PubChem BioAssay AID2060600
